Quick reference: IC50 of the listed items.
biological target: NR1/NR2B (Homo sapiens (Human), UniProt Q05586+Q13224); assay: Cell assay: FDSS Ca2+ influx inhibition in HEK293 cells expressing NR1/NR2B; settings: Binned Activity, HEK293 cells expressing NR1/NR2B, Ca2+ influx; binned NR2B NAM IC50
Sequence (Q13224 27-1484, other chains not shown): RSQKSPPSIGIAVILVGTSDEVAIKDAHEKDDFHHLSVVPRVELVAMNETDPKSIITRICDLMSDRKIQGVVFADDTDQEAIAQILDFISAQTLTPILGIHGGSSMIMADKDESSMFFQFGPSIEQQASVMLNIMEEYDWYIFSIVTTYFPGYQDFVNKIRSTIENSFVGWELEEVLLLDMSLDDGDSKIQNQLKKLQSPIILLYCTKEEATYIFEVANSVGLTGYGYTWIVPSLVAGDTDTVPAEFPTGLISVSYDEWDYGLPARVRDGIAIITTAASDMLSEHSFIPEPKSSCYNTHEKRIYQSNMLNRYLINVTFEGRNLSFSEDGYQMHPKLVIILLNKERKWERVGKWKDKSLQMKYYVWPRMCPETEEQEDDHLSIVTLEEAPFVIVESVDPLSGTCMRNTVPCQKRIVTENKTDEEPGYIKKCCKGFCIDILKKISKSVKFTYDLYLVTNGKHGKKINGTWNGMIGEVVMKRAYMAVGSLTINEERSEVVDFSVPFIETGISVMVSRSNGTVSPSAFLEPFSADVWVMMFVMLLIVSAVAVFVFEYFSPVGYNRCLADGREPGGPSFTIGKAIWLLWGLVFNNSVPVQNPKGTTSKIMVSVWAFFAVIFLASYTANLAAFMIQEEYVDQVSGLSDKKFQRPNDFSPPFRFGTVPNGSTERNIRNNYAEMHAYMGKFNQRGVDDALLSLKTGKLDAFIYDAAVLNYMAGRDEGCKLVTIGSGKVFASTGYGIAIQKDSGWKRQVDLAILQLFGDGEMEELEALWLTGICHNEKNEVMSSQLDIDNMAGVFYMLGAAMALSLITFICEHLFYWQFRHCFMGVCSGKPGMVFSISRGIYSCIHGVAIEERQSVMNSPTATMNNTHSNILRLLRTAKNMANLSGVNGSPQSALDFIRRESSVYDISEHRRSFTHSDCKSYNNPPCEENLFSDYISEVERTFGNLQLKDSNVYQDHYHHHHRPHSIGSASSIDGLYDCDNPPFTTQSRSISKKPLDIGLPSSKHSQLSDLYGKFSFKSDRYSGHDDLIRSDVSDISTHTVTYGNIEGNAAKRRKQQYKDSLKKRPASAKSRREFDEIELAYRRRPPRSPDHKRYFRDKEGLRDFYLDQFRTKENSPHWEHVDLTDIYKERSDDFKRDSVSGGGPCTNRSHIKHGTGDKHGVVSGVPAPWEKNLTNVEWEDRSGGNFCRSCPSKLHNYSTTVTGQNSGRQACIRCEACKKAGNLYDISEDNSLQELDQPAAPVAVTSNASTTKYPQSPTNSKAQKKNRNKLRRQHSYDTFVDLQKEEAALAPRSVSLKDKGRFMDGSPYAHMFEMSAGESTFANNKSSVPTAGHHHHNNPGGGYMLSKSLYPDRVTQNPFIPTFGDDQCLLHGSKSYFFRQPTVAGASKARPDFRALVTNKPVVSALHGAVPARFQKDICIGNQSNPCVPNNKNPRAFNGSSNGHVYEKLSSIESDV

O=c1ccc(C(O)CN2C[C@@H]3C[C@@](O)(Cc4ccccc4)C[C@@H]3C2)n[nH]1 (mixture of isomers) :: > 10 µM
CS(=O)(=O)Nc1ccc(C(=O)CN2C[C@@H]3C[C@@](O)(Cc4ccccc4)C[C@@H]3C2)cc1 :: 0.1 to 1 µM

Attention now turns to another entry.
q: Query IC50 on NR1/NR2B (Homo sapiens (Human), UniProt Q05586+Q13224) for "Cc1cccc(N2C[C@@H]3C[C@@](O)(c4ccc(F)cc4)C[C@@H]3C2)n1"
a: > 10 µM

* * *

target: NR1/NR2B (Homo sapiens (Human), UniProt Q05586+Q13224); assay: Cell assay: FDSS Ca2+ influx inhibition in HEK293 cells expressing NR1/NR2B; conditions: Binned Activity, HEK293 cells expressing NR1/NR2B, Ca2+ influx; binned NR2B NAM IC50
List of IC50 values.

Oc1ccc([C@@H](O)CN2C[C@@H]3C[C@](F)(Cc4ccccc4)C[C@@H]3C2)cc1 :: 0.1 to 1 µM
O=C(Nc1ccc(F)cc1)N1C[C@@H]2C[C@@](O)(c3ccc(F)cc3)C[C@@H]2C1 :: > 10 µM
CC(=O)Nc1ccc(C(=O)CN2C[C@@H]3C[C@@](O)(Cc4ccccc4)C[C@@H]3C2)cc1 :: > 10 µM

Next:
q: Find the recorded IC50 belonging to O=C(CN1C[C@@H]2CC(O)(CCc3ccccc3)C[C@@H]2C1)c1ccc(-c2ccccc2)cc1 (stereo partly shown) and report it.
a: > 10 µM

* * *

biological target: NR1/NR2B (Homo sapiens (Human), UniProt Q05586+Q13224); test: Cell assay: FDSS Ca2+ influx inhibition in HEK293 cells expressing NR1/NR2B; conditions: Binned Activity, HEK293 cells expressing NR1/NR2B, Ca2+ influx; binned NR2B NAM IC50;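 also: Fluo-8 Ca2+ signal read on Hamamatsu FDSS 6000 after glutamate, glycine and Ca2+ challenge following 10 min compound preincubation, end/baseline fluorescence ratio compared with MK801 control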
READOUT_LABEL: IC50

Please review the entries below; each comes with its answer.
O=C(CN1C[C@@H]2C[C@@](O)(Cc3ccccc3)C[C@@H]2C1)c1ccc(O)nc1 :: > 10 µM
CC(C)(C)c1ccc([C@]2(O)C[C@H]3CN(C(=O)Nc4cccc(Cl)c4)C[C@H]3C2)cc1 :: > 10 µM
Oc1ccc(C(O)CN2C[C@@H]3C[C@@](O)(c4ccccc4)C[C@@H]3C2)cc1 (mixture of isomers) :: > 10 µM
O=C(COc1ccc(C(=O)CN2C[C@@H]3C[C@@](O)(Cc4ccccc4)C[C@@H]3C2)cc1F)c1ccc(O)c(F)c1 :: > 10 µM

q: Which IC50 is reported for this compound? "O=C(CN1C[C@@H]2C[C@@](O)(Cc3cccs3)C[C@@H]2C1)c1ccc(O)c(F)c1"
a: 0.1 to 1 µM

q: I'd like to know its IC50. The compound in question is "O=C(CN1C[C@@H]2C[C@@](O)(Cc3ccccc3)C[C@@H]2C1)c1ccc(O)cn1"
a: 1 to 10 µM

q: // lookup IC50 for Oc1ccc(C(O)CN2C[C@@H]3C[C@@](O)(Cc4ccc(Cl)cc4)C[C@@H]3C2)nc1 (mixture of isomers)
a: < 0.1 µM
